Recorded TGI values for a group of compounds are listed next.
System: KM20L2 colon
PROTOCOL: NCI tumour cell line growth inhibition, 48 h
Quick reminder: number only, in µM, skip the unit.

COMPOUND: COC(=O)[C@@H](C)[C@H]1CC[C@@](C)(CCC2=C(C)CC3C=C(C)CCC3C2(C)C)OO1 (stereo not given in full)
REPORTED: 3.13

Please look at the following compound next.
[in] Using KM20L2 colon as the test system, report measured TGI of COC1=CC(=O)C=C(OC)C1=O .
[out] 66.8

----------
Tested on: A549 NSCLC
PROTOCOL: NCI tumour cell line growth inhibition, 48 h
READOUT TYPE: TGI

MOLECULE: COC(=O)C1CC(OC(C)=O)C=C2C(=O)CCC21 (stereo not given)
REPORTED: > 100 µM

Please look at the following molecule next.
[in] Consider the molecule CCCCCCCC(=O)SCC/C=C/[C@@H]1CC(=O)NCc2nc(cs2)C2=N[C@@](C)(CS2)C(=O)N[C@@H](C(C)C)C(=O)N1 and give its recorded TGI.
[out] 1.53 µM
